Documented pIC50 across a set of compounds
- measurement target: Mitogen-activated protein kinase 1 (Homo sapiens, UniProt P28482)
- Sequence (P28482 whole entry): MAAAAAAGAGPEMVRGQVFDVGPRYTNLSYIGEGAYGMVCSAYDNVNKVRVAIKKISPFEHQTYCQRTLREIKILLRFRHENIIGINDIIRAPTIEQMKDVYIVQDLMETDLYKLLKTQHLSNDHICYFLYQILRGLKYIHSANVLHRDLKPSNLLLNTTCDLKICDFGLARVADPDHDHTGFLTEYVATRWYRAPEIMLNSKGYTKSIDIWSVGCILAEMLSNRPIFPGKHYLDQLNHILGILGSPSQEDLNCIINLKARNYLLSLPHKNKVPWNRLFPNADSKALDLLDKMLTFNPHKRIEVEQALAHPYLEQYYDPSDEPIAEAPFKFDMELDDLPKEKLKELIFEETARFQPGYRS
To interpret pIC50, take it as minus log10 of a concentration measured in moles per litre.

> print(dat)
                  compound.structure.string  reported
1  Cn1nc(C(N)=O)c2c1-c1nc(NC3CCN(C(=O)c4ccccc4)CC3)ncc1CC2      6.65

// next entry
Query: Find the measured pIC50: item "CC(=O)N1CCC(Nc2ncc3c(n2)-c2c(c(C(N)=O)nn2C)CC3)CC1" , target or system Mitogen-activated protein kinase 1 (Homo sapiens, UniProt P28482).
Response: 6.67

----------
Entries below carry reported IC50 on Tyrosine-protein kinase SYK (Homo sapiens, UniProt P43405).

> print(dat)
                  compound.structure.string  measure.name  reported
1  CC(=O)N1CCC(Nc2ncc3c(n2)-c2c(c(C(N)=O)nn2C)CC3)CC1          IC50   > 10 µM

Let us examine a further case.
Query: Query IC50 on Tyrosine-protein kinase SYK (Homo sapiens, UniProt P43405) for "Cn1nc(C(N)=O)c2c1-c1nc(NC3CCN(C(=O)c4ccccc4)CC3)ncc1CC2"
Response: > 10 µM

----------
Reported IC50 values, Aurora kinase B (Homo sapiens).

> print(dat)
                  compound.structure.string              measurement.target  reported
1  Cn1nc(C(N)=O)c2c1-c1nc(NC3CCN(C(=O)c4ccccc4)CC3)ncc1CC2  Aurora kinase B (Homo sapiens)   > 10 µM

Query: Endpoint output: IC50 of "CC(=O)N1CCC(Nc2ncc3c(n2)-c2c(c(C(N)=O)nn2C)CC3)CC1" . Value?
Response: > 10 µM

----------
- measurement target: Serine/threonine-protein kinase Chk1 (Homo sapiens)
- Sequence (O14757 whole entry): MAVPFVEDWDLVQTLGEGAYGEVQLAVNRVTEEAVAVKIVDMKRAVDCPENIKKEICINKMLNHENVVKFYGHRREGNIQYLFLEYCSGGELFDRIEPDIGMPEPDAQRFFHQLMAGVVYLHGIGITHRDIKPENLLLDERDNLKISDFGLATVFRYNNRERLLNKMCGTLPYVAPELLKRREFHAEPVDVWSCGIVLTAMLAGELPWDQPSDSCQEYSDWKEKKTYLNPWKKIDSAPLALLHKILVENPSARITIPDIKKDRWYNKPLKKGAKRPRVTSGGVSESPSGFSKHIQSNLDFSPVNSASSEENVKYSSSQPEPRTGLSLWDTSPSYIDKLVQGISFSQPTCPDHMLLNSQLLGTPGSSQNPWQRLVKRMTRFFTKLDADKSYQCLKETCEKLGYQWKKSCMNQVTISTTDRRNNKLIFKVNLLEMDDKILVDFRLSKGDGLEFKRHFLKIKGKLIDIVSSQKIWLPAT
measure name: IC50

> print(dat)
                  compound.structure.string  measure.name  reported
1  CC(=O)N1CCC(Nc2ncc3c(n2)-c2c(c(C(N)=O)nn2C)CC3)CC1          IC50   > 10 µM

Could you now look at the following compound, please?
Query: IC50 lookup needed for "Cn1nc(C(N)=O)c2c1-c1nc(NC3CCN(C(=O)c4ccccc4)CC3)ncc1CC2" , thanks.
Response: > 10 µM

----------
Consider the following IC50 values measured on ALK tyrosine kinase receptor (Homo sapiens, UniProt Q9UM73).
Sequence (Q9UM73 whole entry): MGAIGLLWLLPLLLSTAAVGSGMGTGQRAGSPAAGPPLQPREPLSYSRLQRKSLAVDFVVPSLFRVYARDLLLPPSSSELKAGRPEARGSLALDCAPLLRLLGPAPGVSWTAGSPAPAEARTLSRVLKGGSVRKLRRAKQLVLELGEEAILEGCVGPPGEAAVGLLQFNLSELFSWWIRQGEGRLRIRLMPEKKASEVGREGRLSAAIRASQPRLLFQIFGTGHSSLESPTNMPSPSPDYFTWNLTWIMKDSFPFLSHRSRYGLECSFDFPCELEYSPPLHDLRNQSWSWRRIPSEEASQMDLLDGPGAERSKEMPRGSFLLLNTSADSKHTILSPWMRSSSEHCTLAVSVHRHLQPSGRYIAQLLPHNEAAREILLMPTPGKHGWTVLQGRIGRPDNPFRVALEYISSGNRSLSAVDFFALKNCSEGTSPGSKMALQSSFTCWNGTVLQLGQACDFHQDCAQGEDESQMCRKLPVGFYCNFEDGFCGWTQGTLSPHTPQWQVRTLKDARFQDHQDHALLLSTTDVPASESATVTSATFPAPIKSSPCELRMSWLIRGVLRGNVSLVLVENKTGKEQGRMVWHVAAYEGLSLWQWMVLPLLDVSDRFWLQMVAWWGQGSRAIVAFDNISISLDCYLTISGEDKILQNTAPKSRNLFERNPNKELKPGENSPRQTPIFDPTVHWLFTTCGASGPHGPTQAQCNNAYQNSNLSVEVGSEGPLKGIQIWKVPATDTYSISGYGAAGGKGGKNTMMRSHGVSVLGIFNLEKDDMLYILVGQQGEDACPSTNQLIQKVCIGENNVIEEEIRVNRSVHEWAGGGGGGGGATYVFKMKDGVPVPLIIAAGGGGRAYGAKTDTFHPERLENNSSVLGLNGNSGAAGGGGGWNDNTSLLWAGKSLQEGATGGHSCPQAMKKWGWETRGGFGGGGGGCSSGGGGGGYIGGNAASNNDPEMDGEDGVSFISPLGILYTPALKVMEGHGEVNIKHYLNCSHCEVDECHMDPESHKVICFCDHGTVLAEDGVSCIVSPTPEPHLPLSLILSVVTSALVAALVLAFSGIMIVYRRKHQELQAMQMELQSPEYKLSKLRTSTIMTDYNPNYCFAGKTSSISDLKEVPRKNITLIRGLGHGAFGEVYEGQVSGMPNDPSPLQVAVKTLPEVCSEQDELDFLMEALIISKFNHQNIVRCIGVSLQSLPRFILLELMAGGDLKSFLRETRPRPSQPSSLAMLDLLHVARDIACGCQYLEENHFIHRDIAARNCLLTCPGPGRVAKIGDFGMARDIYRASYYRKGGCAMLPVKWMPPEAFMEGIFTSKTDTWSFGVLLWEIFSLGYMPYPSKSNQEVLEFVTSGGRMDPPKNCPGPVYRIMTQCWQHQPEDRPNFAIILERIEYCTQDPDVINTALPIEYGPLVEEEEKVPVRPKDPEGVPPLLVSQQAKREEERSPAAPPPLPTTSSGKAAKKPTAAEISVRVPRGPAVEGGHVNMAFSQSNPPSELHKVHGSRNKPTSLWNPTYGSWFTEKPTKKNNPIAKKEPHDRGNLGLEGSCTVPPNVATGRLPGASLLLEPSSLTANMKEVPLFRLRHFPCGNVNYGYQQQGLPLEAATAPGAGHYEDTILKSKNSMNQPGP

> print(dat)
                  compound.structure.string  measure.name  reported
1  CC(=O)N1CCC(Nc2ncc3c(n2)-c2c(c(C(N)=O)nn2C)CC3)CC1          IC50   > 10 µM

Consider the additional compound presented here.
Query: So what does the record say about IC50 for "Cn1nc(C(N)=O)c2c1-c1nc(NC3CCN(C(=O)c4ccccc4)CC3)ncc1CC2" ?
Response: > 10 µM
